EXPERIMENTAL_SETUP: a range is the spread between reports
PARAMETER: melting point

Field: example entries. Status: answers known.
> print(dat)
                                    molecule      parameter           result
 1                             O=P(O)(O)CCCl  melting point    70 to 74.5 °C
 2  NC(=O)c1cc([N+](=O)[O-])cc([N+](=O)[O-])c1  melting point    182 to 184 °C
 3                                   CCC1CC1  melting point          -149 °C
 4                                 C=CC(N)=O  melting point    84 to 84.5 °C
 5                              Oc1ccc(F)cc1  melting point    44.5 to 48 °C
 6                  FC(F)(F)c1ccc(Cl)c(Cl)c1  melting point  -12.5 to -12 °C
 7                 O=C(c1ccccc1)c1cccc(Cl)c1  melting point      82 to 83 °C
 8                               Oc1ccccc1Br  melting point      5 to 5.6 °C
 9                      O=Cc1cc(Br)cc(Br)c1O  melting point      83 to 86 °C
10      OC1C2CCC(C2)C1O (stereo unspecified)  melting point    139 to 141 °C

-- ask Item "Oc1ccc2cc(O)ccc2c1" has what recorded melting point?
-- reply 220 to 224 °C

-- ask Now the same for "C=CCN"
-- reply -88.2 to -88 °C

-- ask Now the same for "CCCCOC=O"
-- reply -92 to -91.5 °C

-- ask Now the same for "NC=O"
-- reply 2 to 2.55 °C

-- ask Now the same for OCC(O)COc1ccc(Cl)cc1 (stereo unspecified)
-- reply 78 to 80 °C

-- ask Now the same for "SC(c1ccccc1)(c1ccccc1)c1ccccc1"
-- reply 105 to 106 °C

* * *

EXPERIMENTAL_SETUP: a range is the spread between reports
PARAMETER: melting point

Field: example entries. Status: answers known.
> print(dat)
                                   compound           result
1  C=CCC1(C(C)CCC)C(=O)NC(=O)NC1=O (centres undefined)     95 to 100 °C
2                          N#C/C=C/c1ccccc1      19 to 22 °C
3                                   CCCOC=O  -93 to -92.9 °C

-- ask Item "CN(C)C(=O)Nc1ccc(Cl)cc1" has what recorded melting point?
-- reply 170 to 174 °C

-- ask Now the same for "N#Cc1c[nH]c2ccccc12"
-- reply 180 °C

-- ask Now the same for "CCN(CC)C(=S)SSC(=S)N(CC)CC"
-- reply 70 to 71.5 °C

* * *

EXPERIMENTAL_SETUP: a range is the spread between reports
PARAMETER: melting point

> print(dat)
                      compound      parameter             result
1          COC(=O)c1cccc(Br)c1  melting point        32 to 33 °C
2                     CCC(=O)O  melting point  -21.1 to -20.7 °C
3       c1ccc2c(c1)Oc1ccccc1S2  melting point      57 to 59.5 °C
4  O=C(c1ccc(Cl)cc1)c1ccccc1Cl  melting point        65 to 67 °C
5             O=C/C=C/c1ccccc1  melting point        -8 to -7 °C

-- ask Item "COC(=O)c1cc(Cl)ccc1[N+](=O)[O-]" has what recorded melting point?
-- reply 48.5 to 49 °C

-- ask Now the same for "O=Cc1cc(Cl)cc(Cl)c1"
-- reply 63 to 68 °C

-- ask Now the same for "CCCCCCCCCCCCCCCCCCCCCCCCCCCCCCCC"
-- reply 69.7 to 70 °C

-- ask Now the same for "COc1ccc(N=C=S)cc1"
-- reply 18 to 19 °C

-- ask Now the same for "C=CC(=O)OCCCC"
-- reply -64.6 to -64 °C

-- ask Now the same for "C=CC(C)C"
-- reply -168 °C

-- ask Now the same for "O=C(O)CCCCCCCBr"
-- reply 38.5 to 39 °C

-- ask Now the same for "O=[N+]([O-])c1ccc(O)cc1"
-- reply 112 to 115 °C

-- ask Now the same for "CCOc1ccc2ccccc2c1"
-- reply 36 to 37.5 °C

-- ask Now the same for "O=C(O)c1cccs1"
-- reply 128 to 130 °C
